# Tested on: K-562 leukemia
# Measurement Description: NCI tumour cell line growth inhibition, 48 h
For each entry below, report its TGI value.

Field: example entries. Status: answers known.
Compound | Observed Result
O=[N+]([O-])c1cccc(-c2nc(-c3ccccc3)c(-c3ccccc3)[nH]2)c1 | > 100 µM
CN1CCN(Cc2ccc(NC(=O)c3cncc(C#Cc4cnc(N)cc4C#N)c3)cc2C(F)(F)F)CC1 | 12.1 µM
Cc1ccc(Sc2ccccc2[N+](=O)[O-])cc1 | > 100 µM
CCN1CCN(Cc2ccc(NC(=O)Nc3nc4ccc(Oc5ccnc(C(=O)NC)c5)cc4s3)cc2C(F)(F)F)CC1 | 1.27 µM
CCN(CC)CCCNC(=O)c1cc2cc(NC(=O)c3cc4cc([N+](=O)[O-])ccc4[nH]3)ccc2[nH]1 | > 100 µM

// each compound listed below needs its TGI
1. COC(=O)c1c(C)cccc1C1CN=NC12Cc1ccc(C)c(C)c1C2=O (stereo not drawn)
2. NS(=O)(=O)c1ccc(N=Nc2c(O)[nH]c3ccc(C(=O)NCc4ccncc4)cc23)cc1
3. CCSCN(C)c1nc(N(C)C)nc(N(C)C)n1
4. Cc1ccc(S(=O)(=O)[C@@H](Cl)[C@H]2N=C(Cl)NN=C2c2ccccc2)cc1

["> 100 µM", "> 25 µM", "> 100 µM", "> 100 µM"]

// each compound listed below needs its TGI
1. OCC(CCc1ccccc1I)C1=CCC2(CC1)OCCO2 (stereo not drawn)
2. O=C1Nc2cc([N+](=O)[O-])c(Br)cc2C1=O
3. Oc1ccccc1C1C=C(c2ccccc2)NC(N2CCCCC2)=C1c1nc2ccccc2[nH]1 (stereo not drawn)
4. CC(C)(O)/C=C/C(=O)[C@](C)(O)[C@H]1[C@H](O)C[C@@]2(C)[C@@H]3CC=C4[C@@H](C[C@H](O)C(=O)C4(C)C)[C@]3(C)C(=O)C[C@]12C
5. CN(C)/C=N\c1ccnc(=O)[nH]1
6. Cc1cccc2nc3c(=O)[nH]c(=O)nc-3n(C)c12
7. CCCCCCCC(=O)OCCCC1[C@]2(C)CC[C@@]3(C)C([C@H](C)CCC=C(C)C)CC[C@]3(C)C2CC[C@]12OC2(C)C (stereo partly drawn)

> 100 µM
55.7 µM
> 100 µM
37 µM
> 100 µM
> 100 µM
> 100 µM

// each compound listed below needs its TGI
1. O=C(O)c1cc(=O)c2c([nH]c3ccccc32)s1
2. O=CC(O)C(O)C(O)C1CNC(=S)O1 (stereo not drawn)

1. > 100 µM
2. > 100 µM

----------
# Tested on: TK-10 renal
# Measurement Description: NCI tumour cell line growth inhibition, 48 h
Test Readout: TGI

Field: example entries. Status: answers known.
Compound | Experimental Target | TGI
Cc1cc(Cl)ccc1OCC(=O)Nc1nc(N)nc(N)n1 | TK-10 renal | > 100 µM
C[Si](C)(c1ccc(C(=O)O)cc1)c1ccc(C(=O)O)cc1 | TK-10 renal | > 100 µM
C[N+](C)(C)C=Nc1cccc2c1CCCC2 | TK-10 renal | > 100 µM
CCCc1c(C(=O)OCC)[nH]c(-c2ccc(-c3[nH]c(C(=O)OCC)c(CCC)c3C(=O)OCC)s2)c1C(=O)OCC | TK-10 renal | > 100 µM
CS(=O)(=O)c1nc(-c2cc3c(c(S(C)(=O)=O)n2)CCC3)cc2c1CCCC2 | TK-10 renal | > 100 µM

// each compound listed below needs its TGI
1. CN(C)c1ccc(/C=C2\N=C(c3ccccc3)N(c3cc(C(F)(F)F)ccc3Cl)C2=O)cc1
2. CC1(C)CC2(C)CC1CC2(O)c1ccccc1 (centres undefined)
3. CC(C)c1nc(N(C)S(C)(=O)=O)nc(-c2ccc(F)cc2)c1/C=C/[C@@H](O)C[C@@H](O)CC(=O)O
4. COC(=O)C12CC(NC(=O)c3csc([C@@H](C[C@H](C(C)C)N(C)C(=O)[C@@H](NC(=O)[C@H]4CCCCN4C)C4CC4)OC(C)=O)n3)(C1)C2
5. C=C1[C@@](C)([C@@H]2CCCS2)[C@H]2C(C)=C[C@]1(C)n1c(=O)n(-c3ccccc3)c(=O)n12
6. [O-][N+]1(CC[N+]2([O-])CCCCC2)CCCCC1

["> 100 µM", "> 100 µM", "> 100 µM", "> 16.7 µM", "> 100 µM", "> 100 µM"]

// each compound listed below needs its TGI
1. O=S1(=O)N(Cc2ccccc2)[C@@H](Cc2ccccc2)[C@H](O)[C@H](O)[C@H](Cc2ccccc2)N1Cc1ccccc1
2. COc1cc(C2C(Cl)C(=O)N2NC(=O)c2ccc(NC(C)=O)cc2)ccc1O (centres undefined)
3. CCCCCCCCOC(=O)c1c(C)[nH]c(/C=C2\N=C(c3ccc[nH]3)C=C2OC)c1C
4. Cc1cn(C2CC(CCCO)C(CO)O2)c(=O)[nH]c1=O (centres undefined)
5. OCC(CCc1ccccc1I)C1=CCC2(CC1)OCCO2 (centres undefined)
6. [O-]c1ccccc1C=Nc1ccc2c(c1)CCC2.[O-]c1ccccc1C=Nc1ccc2c(c1)CCC2.[O]=[U+2]=[O]
7. COC(=O)C(CCC(=O)CCl)N1C(=O)c2ccccc2C1=O (centres undefined)

1. 8.38 µM
2. > 100 µM
3. 7.29 µM
4. > 100 µM
5. 50.7 µM
6. 82.2 µM
7. 21.5 µM

// output TGI; input C=C1CC2CC[C@@]34CC5O[C@@H]6C(O[C@H]7CC[C@H](CC(=O)OC8C(C)C9OC%10C[C@]%11(C[C@@H]%12O[C@]%13(CC(C)[C@@H]%14O[C@H](C(O)CC(O)CO)C[C@@H]%14O%13)CC(C)[C@@H]%12O%11)OC%10CC9O[C@H]8C[C@H]8OC(CC[C@@H]1O2)C[C@@H](C)C8=C)OC7[C@@H]6O3)[C@H]5O4 (some centres undefined) ; system TK-10 renal
16.8 µM

----------
# Test system: CCRF-CEM leukemia
# Measurement Description: NCI tumour cell line growth inhibition, 48 h
Test Readout: TGI

Field: example entries. Status: answers known.
Molecule | Observed Result
[O-]c1ccccc1C=Nc1ccc2c(c1)CCC2.[O-]c1ccccc1C=Nc1ccc2c(c1)CCC2.[O]=[U+2]=[O] | > 100 µM
O=C(/C=C/c1ccc(C(F)(F)F)cc1)Nc1ccc(C=C2c3ccccc3C(=O)c3ccccc32)cc1 | > 100 µM
COc1ccc(C(Cc2ccccc2)C2NC(=S)NC2=O)cc1 (stereo unspecified) | > 25 µM

// each molecule listed below needs its TGI
1. [O-][N+]1(CC[N+]2([O-])CCCCC2)CCCCC1
2. COc1ccc(C2OCCN2C)cc1 (stereo unspecified)
3. O=S1(=O)N(Cc2ccccc2)[C@@H](Cc2ccccc2)[C@H](O)[C@H](O)[C@H](Cc2ccccc2)N1Cc1ccccc1

> 100 µM
> 100 µM
> 20 µM

----------
# Tested on: TK-10 renal
# Measurement Description: NCI tumour cell line growth inhibition, 48 h
Test Readout: TGI

Field: example entries. Status: answers known.
Compound | Experimental Target | Test Readout | Observed Result
CCOC(=O)C(C)Sc1nnc(COc2ccccc2OC)n1-c1ccccc1 (stereo unspecified) | TK-10 renal | TGI | > 100 µM
O=CC(O)C(O)C(O)C1CNC(=S)O1 (stereo unspecified) | TK-10 renal | TGI | > 100 µM
NNc1cnn(-c2ccccc2)c(=O)c1Cl | TK-10 renal | TGI | > 100 µM
COCC1OC(S(=O)(=O)c2ccccc2)C(O)C(OC)C1OC (stereo unspecified) | TK-10 renal | TGI | > 100 µM
CC[C@@]1(OC(=O)CN)C(=O)OCc2c1cc1n(c2=O)Cc2c-1nc1cc3c(cc1c2CCl)OCO3 | TK-10 renal | TGI | 7.62 µM

Indicate the recorded TGI value for this compound: `C=C/C(C)=C/C[C@]1(C)[C@H](C)[C@@H](OC(=O)CCC)[C@H](O)[C@@]23C(=C[C@H](OC)C[C@@H]12)[C@@H](OC(=O)CCC)O[C@H]3OC(C)=O`
0.411 µM

----------
For each entry below, report its TGI value.
# Tested on: HT29 colon
# Measurement Description: NCI tumour cell line growth inhibition, 48 h
Where a SMILES comes first, the peptide text is derived from it. The star is where a group is joined. Boc = CC(C)(C)OC(=O)*; OBn = c1ccc(CO*)cc1

Field: example entries. Status: answers known.
Compound | Experimental Target | TGI
CC(C)CC(NC(=O)OC(C)(C)C)C(=O)NC(CC(=O)OCc1ccccc1)C(=O)OCc1ccccc1 (stereo not drawn) (Boc-Leu-Asp(OBn)-OBn; configuration not given here) | HT29 colon | > 100 µM
COC(=O)NNC(c1ccc(Cl)cc1)c1ccc(Cl)cc1 | HT29 colon | 34.2 µM
CC(C)=CCOc1cc(NC(=S)c2ccsc2C)ccc1Cl | HT29 colon | > 100 µM

// each compound listed below needs its TGI
1. COc1ccc(C(=O)c2cc3c(N)c(C(=O)Nc4ccccc4)sc3nc2C)cc1
2. CCOC(=O)c1c(C)n(Cc2ccc(Cl)cc2Cl)c2c1cc1oc(=O)c(=O)n3cnc2c13
3. O=S(=O)(c1ccc(-c2nnc(-c3ccc(F)cc3)o2)cc1)c1ccc(-c2nnc(-c3ccc(F)cc3)o2)cc1
4. COc1ccc(C(Cc2ccccc2)C2NC(=S)NC2=O)cc1 (stereo not drawn)

["> 100 µM", "37.8 µM", "> 100 µM", "> 25 µM"]

Sourced from PubChem BioAssay (NCI)
